Test system: H1 or H9 human embryonic stem cells
Assay: Activin A bioassay: differentiation of human embryonic stem cells to definitive endoderm, cell number and SOX17 intensity by high content analysis (96-well, four days);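 note: total fluorescence of the cell multiplied by cell area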
Type: cell-based
Conditions: supernatant concentration 10x, assay dilution 1:20
Listed here are molecules together with their documented Sox 17 Intensity average.
observation_type: Sox 17 Intensity average

# molecule, value_reported
data = [
    ("ACTN55: activin A variant peptide, SEQ ID 56 (protein) GLECDGKVNICCKKQSFGQTKDIGWNDWIIAPSGYHGGGCTGECPSHIAGTSGSSLSFHSTVINHYRMRGHSPWANLKSCCSPTKLRPMSMLYYDDGQNIIKKDIQGMVVEECGCT", "2.67E+05"),
    ("ACTN47: activin A variant peptide, SEQ ID 48 (protein) GLECDGKVNYCCKKQNFVSFKDIGWNDWIIAPSGYHANECSGKCPSHIAGTSGSSLSFHSTVINHYRMRGHSPFSDMGSCCIPTKLRPMSMLYYDDGQNIIKKDIQNMIVEECGCS", "4.27E+06"),
    ("ACTN41: activin A variant peptide, SEQ ID 42 (protein) GLECDGKVNLCCKKQDFVSFKDIGWNDWIIAPSGYHANSCSGLCPSHIAGTSGSSLSFHSTVINHYRMRGHSPFSDRGACCIPTKLRPMSMLYYDDGQNIIKKDIQNMIVEECGCS", "1.46E+05"),
]

Each recorded value in this set is attributed to patent US20110091971A1.
